# Test system: HCT-15
Lab note - cut at 10 µM for GI50: True if strictly below, False if not.

Criterion: GI50 strictly below 10 µM. Is it met by CC#COS(=O)(=O)c1ccc(C)cc1 ? False

Criterion: GI50 strictly below 10 µM. Is it met by CC1(C)CC[C@]2(C(=O)O)CC[C@]3(C)C(=CC[C@@H]4[C@@]5(C)CC[C@@H]6OC(C)(C)OC[C@@]6(C)[C@@H]5CC[C@]43C)[C@H]2C1 ? True

Criterion: GI50 strictly below 10 µM. Is it met by N/C(=N\c1ccc(Cl)cc1)NS(=O)(=O)c1cc(Cl)c(Oc2ccc([N+](=O)[O-])cc2Cl)c(Cl)c1 ? False

Criterion: GI50 strictly below 10 µM. Is it met by COc1ccc(/N=c2/[nH]c(N)c(C(=O)c3ccc(OC)cc3)s2)cc1 ? True

Criterion: GI50 strictly below 10 µM. Is it met by O=C(O)CCN(CCCCN(CCC(=O)O)CCC(=O)O)CCC(=O)O ? False

Criterion: GI50 strictly below 10 µM. Is it met by CCOc1ccc2nc(NC(=O)C(=O)C(C(=O)c3ccccc3F)C3OC(=O)c4ccccc43)sc2c1 (configuration not stated) ? False

Criterion: GI50 strictly below 10 µM. Is it met by Cc1ccc(C2SC(=N)Nc3c2c(C)nn3C(=O)c2ccc(Cl)cc2)cc1 (configuration not stated) ? False

Criterion: GI50 strictly below 10 µM. Is it met by C=C(C)C12CC3CC(/C(=N/O)C(C1)/C3=N\O)[C@@]2(C)O (some centres not stated) ? False

Criterion: GI50 strictly below 10 µM. Is it met by C=C1C(=O)OC2CC3(C)OC3CC/C(C)=C/C(OC(C)=O)C12 (configuration not stated) ? True

Criterion: GI50 strictly below 10 µM. Is it met by O=C(Nc1cccc2ccccc12)Oc1ccccc1C1CCCCC1 ? False

Criterion: GI50 strictly below 10 µM. Is it met by O=c1c2cccnc2oc2c(Cl)cc(-c3nnn[nH]3)cc12 ? False

Criterion: GI50 strictly below 10 µM. Is it met by CN(Cc1cnc2nc(N)nc(N)c2n1)c1ccc(C(=O)NC23CC4CC(CC(C4)C2)C3)cc1 ? True

Criterion: GI50 strictly below 10 µM. Is it met by O=C1COc2cc(NC(=S)Nc3ccccc3)ccc2N1 ? False

Criterion: GI50 strictly below 10 µM. Is it met by O=C(Cn1c2c(c3ccccc31)CCCC2)N1CCCC1 ? False

Criterion: GI50 strictly below 10 µM. Is it met by O=C(Nc1ccccc1)c1cc2ccccc2c(/N=N/c2ccc([N+](=O)[O-])cc2)c1O ? False

Criterion: GI50 strictly below 10 µM. Is it met by Cc1ccc(NC2=CC(=O)C(NO)c3ccccc32)cc1 (configuration not stated) ? True

Criterion: GI50 strictly below 10 µM. Is it met by CCOC(=O)/C(C(=S)NC)=C(/N)N1CCCC1 ? False

----------
# System: SF-295
# protocol: NCI tumour cell line growth inhibition, 48 h
The source made the active and inactive calls. Rule as the data show it: active = GI50 up to about 1.1 µM and inactive = higher.
Parameter call: string, one of class 1 for active, class 0 for inactive

How did this test come out for O=C(c1ccccc1)c1nc2c(Cl)ccc(Cl)c2cc1C(Br)Br ? class 0

How did this test come out for CC(=O)O[C@@H]1CN(S(=O)(=O)c2ccc(C)cc2)C[C@@H]1C1CCCCC1 ? class 0

How did this test come out for COC(=O)[C@H]1NC(=O)CCSSC1(C)C ? class 0

How did this test come out for CC(=O)Oc1cc2oc(=O)cc(C)c2cc1OC(C)=O ? class 0

How did this test come out for Cc1ccc(NC2=CC(=O)C(NO)c3ccccc32)cc1 (stereo not drawn) ? class 0

How did this test come out for COc1cc(O)c2c(=O)c3c(C)cccc3n(C)c2c1 ? class 0

How did this test come out for C=C1C(=O)OC2C=C(C)CC3C=C(CCC=C(C)CCC12)C(=O)O3 (stereo not drawn) ? class 0

How did this test come out for COc1cc(/C=C/C(C)=O)ccc1OP(=O)(O)O ? class 0

How did this test come out for CC(C)(C)c1cc(C#N)c2c(c1)C(=O)OC2(c1ccccc1)c1ccccc1C#N (stereo not drawn) ? class 0

How did this test come out for CC(C)C(/N=C/c1ccccc1O)C(=O)O (stereo not drawn) ? class 0

How did this test come out for CCOC(=O)C(C(=O)OCC)C(NC(=O)Nc1cc(C(F)(F)F)ccc1OC)(C(F)(F)F)C(F)(F)F ? class 0

How did this test come out for S=c1nc(Nc2ccc(Cl)cc2)c2c3c(sc2[nH]1)CCCC3 ? class 0

How did this test come out for N=C1CCCC1C(=S)SCCC(N)=O (stereo not drawn) ? class 0

How did this test come out for COc1ccc(/N=c2/[nH]c(N)c(C(=O)c3ccc(OC)cc3)s2)cc1 ? class 1

How did this test come out for Cn1c(-c2c(C3=CC(=O)N(c4ccccc4)C3=O)c3ccccc3n2C)cc2ccccc21 ? class 0

How did this test come out for C/C(CC(=O)N(C(C)C)C(C)C)=N\NC(=O)c1ccncc1 ? class 0

How did this test come out for COc1ccc(/C=C2\CCC(CN3CCOCC3)C2=O)cc1 (stereo not drawn) ? class 0

How did this test come out for CN1CC2=C(N=C(S)NC2c2ccc(Cl)cc2)/C(=C/c2ccc(Cl)cc2)C1 (stereo not drawn) ? class 0

----------
# Tested on: OVCAR-4
# protocol: NCI tumour cell line growth inhibition, 48 h
The source made the active and inactive calls. Rule as the data show it: active = GI50 up to about 1.1 µM and inactive = higher.
result-type: GI50

// field: GI50; key: NC(CSC1(c2ccc(Cl)cc2)c2ccccc2-c2ccccc21)C(=O)O (stereo unspecified) ; value = 22.2 µM (inactive)

// field: GI50; key: C#CC[N+](CCO)(CCO)CCCCCCCCCCCCCCCCCC ; value = 10.5 µM (inactive)

// field: GI50; key: C[C@H]1S[C@H](c2c(Cl)cccc2Cl)N2Cc3ccccc3N=C12 ; value = 29.8 µM (inactive)

// field: GI50; key: CCOP1(=O)OCC2OC(n3cnc4c(N)ncnc43)C(O)C2O1.c1ccccc1 (stereo unspecified) ; value = > 100 µM (inactive)

// field: GI50; key: [O-][N+]1=C(c2ccccc2)/C(=C2/C(c3ccccc3)=[N+]([O-])c3ccccc32)Cc2ccccc21 ; value = 13.8 µM (inactive)

// field: GI50; key: COC(=O)CC1CCN(C#N)CC1CC[N+](=O)[O-] (stereo unspecified) ; value = > 100 µM (inactive)

// field: GI50; key: C(=N\c1ccc(-c2nc3ccccc3s2)cc1)/c1ccc[nH]1 ; value = 23.8 µM (inactive)

// field: GI50; key: COc1cc2c(cc1OC)CN1CCCc3cc(OC)c(OC)cc3C1C2 (stereo unspecified) ; value = 62.4 µM (inactive)

// field: GI50; key: COc1ccc(/C(Cl)=C(\C=N/O)c2ccc(OC)c(OC)c2)cc1OC ; value = > 100 µM (inactive)

// field: GI50; key: COc1ccc(N2C(=O)c3cccnc3S2(=O)=O)cc1 ; value = > 100 µM (inactive)

// field: GI50; key: COc1cccc(/C=N\NC(=O)C(C)SC(C)C(=O)N/N=C/c2cccc(OC)c2)c1 (stereo unspecified) ; value = 16.8 µM (inactive)

// field: GI50; key: O=C1CCCC2=C1CC1=C(CCCC1=O)N2c1ccc(Cl)cc1 ; value = > 100 µM (inactive)

// field: GI50; key: COC(=O)[C@H]1NC(=O)CCSSC1(C)C ; value = > 100 µM (inactive)

// field: GI50; key: O=C(Nc1ccc(Cl)cc1)c1cc([N+](=O)[O-])ccc1O ; value = 4.52 µM (inactive)

// field: GI50; key: O=C(/C=C/c1c(O)ccc2ccccc12)c1ccc([N+](=O)[O-])cc1 ; value = 18.5 µM (inactive)

// field: GI50; key: CCOc1cc(C(c2c(O)c3ccccc3oc2=O)c2c(O)c3ccccc3oc2=O)ccc1OC ; value = 17.2 µM (inactive)

// field: GI50; key: C=CCC1(CN(C)C)CC/C(=C\c2ccc(OC)cc2)C1=O (stereo unspecified) ; value = 88.7 µM (inactive)

// field: GI50; key: Cc1ccc(C2SC(=N)Nc3c2c(C)nn3C(=O)c2ccc(Cl)cc2)cc1 (stereo unspecified) ; value = > 10 µM (inactive)

// field: GI50; key: O=C(Cn1c2c(c3ccccc31)CCCC2)N1CCCC1 ; value = 27.4 µM (inactive)

// field: GI50; key: COc1ccc(C(c2c(O)c3ccccc3n(C)c2=O)c2c(O)c3ccccc3n(C)c2=O)cc1 ; value = 62.8 µM (inactive)

// field: GI50; key: O=C1CSC(=S)N1c1ccc(F)cc1F ; value = 49.2 µM (inactive)

// field: GI50; key: Cc1ccccc1C(=O)Oc1ccc(OCc2ccccc2)cc1 ; value = > 100 µM (inactive)

// field: GI50; key: S=c1nc(Nc2ccc(Cl)cc2)c2c3c(sc2[nH]1)CCCC3 ; value = > 100 µM (inactive)

// field: GI50; key: COc1cc2nc(-c3ccccc3)cc(O)c2cc1OC ; value = > 73.3 µM (inactive)

// field: GI50; key: O=S1(=O)[C@H](c2ccccc2)c2c(-c3ccccc3)sc(-c3ccccc3)c2[C@@H]1c1ccccc1 ; value = 48.1 µM (inactive)

// field: GI50; key: Cc1cc(NC(=O)NC(=O)c2ccccc2N)ccc1Oc1ncc(Br)cn1 ; value = 4.78 µM (inactive)

// field: GI50; key: CCOc1ccc(/N=N/C2C(=O)N(C(=O)CC(=O)Nc3ccc(C)cc3)N=C2C)cc1 (stereo unspecified) ; value = 25.3 µM (inactive)

// field: GI50; key: C/C(CC(=O)N(C(C)C)C(C)C)=N\NC(=O)c1ccncc1 ; value = > 100 µM (inactive)

// field: GI50; key: O=S1(=O)c2ccccc2-c2nccc3ccnc1c23 ; value = 37.9 µM (inactive)

// field: GI50; key: O=Cc1c(O)c(C(=O)Nc2ccc3[nH]c(=O)[nH]c3c2)cc2ccccc12 ; value = > 100 µM (inactive)

// field: GI50; key: CCCC[C@H]1C(=O)O[C@H](C)[C@H](NC(=O)c2cccc(NC=O)c2OC)C(=O)O[C@@H](C)[C@@H]1OC(=O)C(C)CC.CCCC[C@H]1C(=O)O[C@H](C)[C@H](NC(=O)c2cccc(NC=O)c2OC)C(=O)O[C@@H](C)[C@@H]1OC(=O)CC(C)C (stereo partly specified) ; value = 7.94 µM (inactive)
